# tgt: T1, cSNK:BSA conjugate (bovine, head-to-tail cyclized; conjugated to BSA carrier)
# T1 construct: also called BSA-cSNK
# methodNotes: BLI 2:1 fit, site 1; 3.13 nM row
# Experimental: Biolayer interferometry (Octet […], ForteBio) was used to qualitatively/quantitatively assess the interactions between humanized versions of 5E3 and cSNK:BSA conjugate. […] MAbs were loaded onto sensors and then washed in PBST. Each sensor was associated with one of several cSNK:BSA standards (100 nM to 0 nM) and then washed in PBST. […] For each mAb analyzed, a 2:1 model provided the “best fit”.
property: pKd
// pKd: -log10(molar conc.)

Example entries begin here.
[[record]]
binder = "hu5E3-IgG4 (antibody, V domains shown, human IgG4/kappa; also called humanized 5E3 IgG4) VH: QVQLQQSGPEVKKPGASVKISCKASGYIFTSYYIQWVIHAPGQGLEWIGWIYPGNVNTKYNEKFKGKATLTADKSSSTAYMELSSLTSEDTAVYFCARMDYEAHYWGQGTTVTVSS VL: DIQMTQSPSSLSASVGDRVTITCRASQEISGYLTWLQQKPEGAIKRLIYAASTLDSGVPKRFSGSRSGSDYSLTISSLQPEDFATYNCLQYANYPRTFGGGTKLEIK"
number = 9.20

[[record]]
binder = "hu5E3-IgG2 (antibody, V domains shown, human IgG2/kappa; also called humanized 5E3 IgG2) VH: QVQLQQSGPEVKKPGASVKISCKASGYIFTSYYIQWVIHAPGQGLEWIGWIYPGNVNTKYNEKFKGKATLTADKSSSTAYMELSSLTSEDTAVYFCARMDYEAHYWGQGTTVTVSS VL: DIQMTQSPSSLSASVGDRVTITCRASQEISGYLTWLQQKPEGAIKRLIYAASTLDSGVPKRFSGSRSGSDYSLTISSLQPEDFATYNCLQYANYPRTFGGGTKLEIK"
number = 8.93

[[record]]
binder = "murine monoclonal antibody 5E3 (antibody, V domains shown, mouse antibody of the 5E3 hybridoma; also called murine 5E3; m5E3) VH: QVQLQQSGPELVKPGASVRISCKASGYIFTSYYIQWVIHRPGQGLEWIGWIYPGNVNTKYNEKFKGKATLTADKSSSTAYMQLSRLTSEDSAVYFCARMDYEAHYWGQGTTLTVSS VL: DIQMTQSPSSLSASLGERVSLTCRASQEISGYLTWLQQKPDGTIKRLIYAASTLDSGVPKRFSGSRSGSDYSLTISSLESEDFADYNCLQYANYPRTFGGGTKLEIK"
number = 9.48


Here's the next entry for you.
Req: # pKd lookup, item hu5E3-IgG1 (antibody, V domains shown, human IgG1/kappa; also called humanized 5E3 IgG1; IHA variant) VH: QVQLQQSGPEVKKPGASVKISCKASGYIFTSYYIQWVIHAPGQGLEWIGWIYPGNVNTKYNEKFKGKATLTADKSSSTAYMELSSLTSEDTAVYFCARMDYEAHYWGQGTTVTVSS VL: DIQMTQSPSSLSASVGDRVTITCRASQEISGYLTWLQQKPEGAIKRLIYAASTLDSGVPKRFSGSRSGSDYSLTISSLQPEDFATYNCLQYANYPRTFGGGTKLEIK
Resp: 9.33
